# REVEAL 24 hours (% of positive control signal) annotations
Assay target: T1, HLA DQA1*0101:DQB1*0501
T1 chain 1: not shown
T1 chain 2: not shown
Assay remarks: REVEAL class II binding assay (cell-free)
Observable: REVEAL 24 hours (% of positive control signal)

>  <Binder>
IDPFKLLQNSQVVSL (modifications not checked) [Peptide #8 (Common CP sequence)]

>  <Reported measurement>
0

$$$$
>  <Binder>
SGAAGAAVKGVGTMV (modifications not checked) [Peptide #6 (Common CP sequence)]

>  <Reported measurement>
0

$$$$
>  <Binder>
LILYDKEEMRRIWRQ (modifications not checked) [Peptide #4 (X181 NP fragment)]

>  <Reported measurement>
0.1

$$$$
>  <Binder>
EKATNPIVPSFDMSN (modifications not checked) [Peptide #7 (Common CP sequence)]

>  <Reported measurement>
0

$$$$
>  <Binder>
LTVAAWSVKTSPLNM (modifications not checked) [Peptide #13 (Reverse of #10)]

>  <Reported measurement>
0.3

$$$$
>  <Binder>
ALNRGSGSGIITSDA (modifications not checked) [Peptide #17 (Hemagglutinin fragment)]

>  <Reported measurement>
0

$$$$
>  <Binder>
VGKMIGGIGRFYIQM (modifications not checked) [Peptide #5 (Common CP sequence)]

>  <Reported measurement>
13.9

$$$$
>  <Binder>
RELILYDKEEMRRIWRQANNG (modifications not checked) [Peptide #2 (X181 NP fragment)]

>  <Reported measurement>
1

$$$$
>  <Binder>
AMERNAGSGIIISDT (modifications not checked) [Peptide #16 (Hemagglutinin fragment)]

>  <Reported measurement>
0.1

$$$$
>  <Binder>
RELILYDKEEIRRIWRQANNG (modifications not checked) [Peptide #1 (X179-A NP fragment)]

>  <Reported measurement>
7.4

$$$$
>  <Binder>
ALSRGFGSGIITSNA (modifications not checked) [Peptide #18 (Hemagglutinin fragment)]

>  <Reported measurement>
0

$$$$

The origin of these recorded values is patent US20190184007A1.
